Form field: z-score (one value per entry).
assay: PSAC antagonists in infected red cells, primary screen, cell-based, P. falciparum Indochina, OD700, 18 h (AID 1157); settings: P. falciparum Indochina infected erythrocytes, osmotic lysis OD700, 18 h; higher = more signal, called active from +8 up or from −8 down
Could you keep your reply to the number by itself?

The examples below pair each entry with its known result.
{"molecule": "O=C1NC(=O)C2C1C=CC(C(O)C(O)CO)N2Nc1ccccn1 (centres undefined)", "z-score": -0.145}
{"molecule": "[N-]=[N+]=NCc1ccccc1[C@H]1OC(c2ccc(OCCCO)cc2)=N[C@@]1(CCS(=O)(=O)c1ccccc1)C(=O)O", "z-score": 1.06}
{"molecule": "CN1C(=O)C2C=CC(C(O)c3ccc(I)cc3)N(N(c3ccccc3)c3ccccc3)C2C1=O (centres undefined)", "z-score": 1.54}

// next item, z-score requested
Q: # get_value(readout='z-score', item= `COc1c(C)cc(-c2cc3c(c(CCc4ccccc4)n2)[Si](C(C)C)(C(C)C)O[C@H]3c2ccccc2)cc1C` )
Result: 1.09

----------
target: NADPH oxidase 2 (Homo sapiens); experiment: NOX2-dependent H2O2 signal modulators, primary screen, NOX inhibitor project, cell-based, HEK293-NOX2, PMA-stimulated, Amplex Red fluorescence (AID 1159); conditions: 45 min, higher = more signal, called active from +8 up or from −8 down; note: test concentration not given here
measurement_name: z-score
Just the number.

Answered cases to consult:
{"molecule": "COC(=O)C(CC#Cc1ccc2c(c1)[C@]1(C(=O)N2)[C@H](c2ccccc2OCCO)N2[C@H](c3ccccc3)[C@H](c3ccccc3)OC(=O)[C@H]2[C@@H]1C(=O)N1CCN(c2ncccn2)CC1)C(=O)OC", "z-score": 0.803}
{"molecule": "CCOC(=O)C1=CC[C@@H](c2ccccc2)N(S(=O)(=O)c2ccc(C)cc2)[C@@H]1C#N", "z-score": 0.224}

Q: Param item = COc1ccc(C(O)C2C=CC3C(=O)N(C)C(=O)C3N2Nc2ccccc2)cc1 (stereo not given) ; retrieve measured z-score.
Result: -1.26

Q: Then what about the molecule `CC(C)C(=C=CC[C@H](O)c1cccc(OCCO)c1)C[C@H](O)c1ccccn1` ?
Result: -1.57

Q: Would you kindly repeat that for N#Cc1ccc(NN2C(C(O)c3ccc(B(O)O)cc3)C=CC3CN(c4ccccc4)C(=O)C32)cc1 (stereo not given) ?
Result: -2.63

Q: Another molecule to look at: `O=C1O[C@H](c2ccccc2)[C@H](c2ccccc2)N2[C@H]1[C@@H](C(=O)O)[C@]1(C(=O)Nc3ccc(C#CC4(O)CCCCCC4)cc31)[C@H]2c1ccccc1OCCO`
Result: 2.49

Q: // next record `CC[C@@H](O[Si](C#C[Si](C(C)C)(C(C)C)C(C)C)(C(C)C)C(C)C)c1cn([C@H](CO)Cc2ccccc2)nn1`
Result: -0.69

Q: Field entry: `C=C(CCCC)C(=O)CC[C@H](OC(=O)c1ccccc1-c1ccccc1C(=O)O)c1cccc(OCCO)c1`
Result: 0.976

Q: Also need `OCCCc1cc[n+](Cc2cc3c(cc2Br)OCO3)cc1` , thanks.
Result: -0.0452

----------
# maps each entry to its composite z-score
tested on: wheat germ agglutinin (Triticum aestivum), Alexa647-labelled; test: wheat germ agglutinin binders on compound microarrays, profiling panel, artefact control for SMM control-protein annotation, biochemical, small-molecule microarray, 635/667 nm fluorescence (AID 1140); settings: WGA-A647 binding, 635 nm fluorescence, higher = more signal;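 note: score merges 667 nm feature emission with signal to noise over triplicate slides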
# print the numeric value only

{"molecule": "COc1c(C)cc(-c2nc(-c3ccccc3)c3c(c2C)CO[Si]3(C(C)C)C(C)C)cc1C", "measurement_name": "composite z-score", "value": -0.0784}
{"molecule": "C=C1C(=O)C=C2CN(C(=O)c3ccccc3)[C@@](Cc3ccc(F)cc3)(C(=O)OC)[C@@H]12", "measurement_name": "composite z-score", "value": 0.872}
{"molecule": "NCCCCCCNC(=O)[C@@H]1C[C@@H]2C(=O)NCC(=O)N2[C@@H]1c1cccc(OCCO)c1", "measurement_name": "composite z-score", "value": 0.917}

Moving on to the next molecule.
Q: Suppose we examine the molecule C[C@H]1C2[C@H](Cc3ccccc3)NC(=O)[C@]23C(=O)N[C@@H](Cc2ccccc2)C(=O)N2CCC[C@H]2C(=O)NC/C=C/CC/C=C/C3[C@@H]2O[C@]12C (some centres undefined) ; what composite z-score value has been reported?
Result: 0.0255

----------
experiment: basal S. cerevisiae growth modulation, no modifier, primary screen, OD600, strain BY4716, 24 h, basal condition (AID 1173); conditions: OD600, 24 h, higher = more signal, called active from +8 up or from −8 down
Decide by z-score: equal to or exceeding -1 means label 1, less means label 0.

Example entries and their recorded answers appear below.
{"compound": "[N-]=[N+]=NCc1ccccc1[C@H]1OC(c2ccc(OCCCO)cc2)=N[C@@]1(Cc1ccccc1N=[N+]=[N-])C(N)=O", "label_class": "label 0"}
{"compound": "COc1ccc(CCNC(=O)[C@@]2(c3ccc([N+](=O)[O-])cc3)CC(=O)N(C3CCCCC3)[C@@H]2c2ccc(CO)cc2I)cc1", "label_class": "label 1"}
{"compound": "Cc1ccc(S[C@]2(C(=O)NCC(C)C)CC(=O)N(C(C)C)[C@@H]2c2ccc(CO)cc2I)cc1", "label_class": "label 0"}
{"compound": "O=C1O[C@H](c2ccccc2)[C@H](c2ccccc2)N2[C@H]1[C@@H](C(=O)N1CCN(c3ncccn3)CC1)[C@]1(C(=O)Nc3ccc(C#CC4(O)CCCCCC4)cc31)[C@H]2c1ccc(O)cc1", "label_class": "label 1"}
{"compound": "[N-]=[N+]=Nc1ccccc1C[C@]1(C(=O)N2CCCCC2)N=C(c2ccc(OCCCO)cc2)O[C@H]1c1ccccc1", "label_class": "label 0"}

Q: Evaluate `CC(C)C[C@@H]1NC(=O)[C@@H]2C[C@H](C(=O)NCCCCCNC(=O)CS)[C@H](c3ccc(O)cc3)N2C1=O` : z-score at minimum -1?
Result: label 0

Q: What about O=C1C2C=CC(C(O)C3CCCCC3)N(Nc3ccccc3F)C2C(=O)N1c1ccccc1 (centres undefined) ?
Result: label 1

Q: Record: `COC(=O)[C@]1(Cc2ccccc2N=[N+]=[N-])N=C(c2ccc(OCCCO)cc2)O[C@@H]1c1ccccc1CN=[N+]=[N-]`
Result: label 1

Q: What do we get for `COc1ccc(C(=O)Nc2ccc(CN3C(=O)[C@]4(O[C@H](CC(=O)N(CCO)Cc5ccccc5)[C@@H]([Si](C)(C)c5ccc(OC)cc5)[C@@H]4C)c4ccccc43)cc2)cc1` ?
Result: label 1

Q: Can you check `C=C[C@H](C)[C@@H](OC(=O)Nc1ccc(SC)cc1)c1ccc(OCCO)cc1` next?
Result: label 1

Q: Same question, `COC(=O)C(CC#Cc1ccc2c(c1)[C@]1(C(=O)N2)[C@H](C(N)=O)[C@H]2C(=O)O[C@H](c3ccccc3)[C@H](c3ccccc3)N2[C@@H]1c1ccccc1OCCO)C(=O)OC` this time
Result: label 1

Q: `CCCCC(=C=CC[C@@H](O)c1ccccc1OCCO)C[C@@H](O)c1ccccn1` , same question.
Result: label 0

Q: What do we get for `Cc1ccc(N2C(=O)c3ccccc3[C@@H](C(=O)NCCN3CCOCC3)[C@@H]2c2ccc(CO)cc2)nc1` ?
Result: label 1

Q: Quick one: `C=CCNC(=O)[C@H]1[C@@H]2C(=O)O[C@@H](c3ccccc3)[C@@H](c3ccccc3)N2[C@@H](c2ccc(O)cc2)[C@]12C(=O)N(C(=O)OCCOC)c1ccc(C#Cc3ccc(OC)cc3)cc12`
Result: label 1

Q: `C=CC[C@]12N=C(c3ccc(OCCCO)cc3)O[C@H]1c1ccccc1N(CCC)C2=O` , same question.
Result: label 0

Q: Now give it for CC1C2C(CCCO)=CC(C3C(=O)N(C(N)=O)C(=O)C23)N1Cc1cccc(OC(F)(F)F)c1 (centres undefined) too.
Result: label 1

----------
assay: yeast growth modulation, basal conditions, primary screen, YJM789 clinical isolate, OD600, 24 h (AID 1089);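 note: growth of clinical yeast isolate S. cerevisiae YJM 789 seeded 1000 cells per well; test concentration not given here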; details: S. cerevisiae YJM789 growth, higher = more signal, called active from +8 up or from −8 down
Listing: z-score of selected molecules
Give the figure by itself; no unit, no explanation.

{"compound_smiles": "[N-]=[N+]=NCc1ccccc1C[C@]1(C(=O)N2CCCCC2)COC(c2ccc(OCCCO)cc2)=N1", "z-score": 0.504}
{"compound_smiles": "C=C(C(=O)CC[C@@H](OC(=O)c1cccnc1)c1cccc(OCCO)c1)C(C)C", "z-score": -1.11}
{"compound_smiles": "CC(C)[Si](C#Cc1ccccc1)(O[C@H](c1ccccc1)c1cn(Cc2ccccc2)nn1)C(C)C", "z-score": -1.94}
{"compound_smiles": "COCCOC(=O)N1C(=O)[C@@]2(c3cc(C#CCNC(N)=O)ccc31)[C@H](c1ccc(O)cc1)N1[C@H](c3ccccc3)[C@H](c3ccccc3)OC(=O)[C@H]1[C@@H]2C(=O)N1CCc2cc(OC)c(OC)cc2C1", "z-score": 1.05}
{"compound_smiles": "[N-]=[N+]=NCc1ccccc1[C@H]1OC(c2ccc(OCCCO)cc2)=N[C@@]1(Cc1ccccc1N=[N+]=[N-])C(N)=O", "z-score": 0.61}
{"compound_smiles": "COC(=O)C(CC#Cc1ccc2c(c1)[C@]1(C(=O)N2)[C@H](C(=O)N2CCCCCCC2)[C@H]2C(=O)O[C@H](c3ccccc3)[C@H](c3ccccc3)N2[C@@H]1c1ccc(OCCO)cc1)C(=O)OC", "z-score": -0.0902}

Then this molecule:
Q: Endpoint output: z-score of `C=C[C@@H](CO)NS(=O)(=O)c1ccc(Br)cc1` . Value?
Result: -3.08
